# system-name: UniProt P08684
# Sequence (P08684 whole entry): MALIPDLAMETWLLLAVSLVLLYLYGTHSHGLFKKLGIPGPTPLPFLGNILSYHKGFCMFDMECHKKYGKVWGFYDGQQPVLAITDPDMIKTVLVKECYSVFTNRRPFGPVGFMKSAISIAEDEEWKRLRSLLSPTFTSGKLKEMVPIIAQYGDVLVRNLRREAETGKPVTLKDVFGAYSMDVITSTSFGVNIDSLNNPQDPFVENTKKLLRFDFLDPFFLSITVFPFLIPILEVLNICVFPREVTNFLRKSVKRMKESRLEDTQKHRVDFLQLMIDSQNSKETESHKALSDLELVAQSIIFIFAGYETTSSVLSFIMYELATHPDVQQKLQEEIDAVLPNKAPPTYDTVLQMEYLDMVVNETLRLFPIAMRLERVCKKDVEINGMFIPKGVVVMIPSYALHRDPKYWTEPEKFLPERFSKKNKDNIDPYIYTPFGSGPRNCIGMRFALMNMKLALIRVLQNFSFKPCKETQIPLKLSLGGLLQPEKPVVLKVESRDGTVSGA
# method: Inhibition of CYP3A4 (unknown origin) at 1 uM preincubated for 10 mins followed by NADPH addition and measured after 20 mins by luminescence based microplate reader analysis relative to control
# Assay type: ADME
# applied-conditions: time 30 min
metric-name: inhibition at 20 min, 1 µM (%)
// return numeric value only (unit: %, not printed)

Quick one: inhibition at 20 min, 1 µM of "COc1ccc(S(=O)(=O)N[C@H]2CCN(C(=O)CC[C@H](N)C(=O)O)C2)cc1C(=O)Nc1ccccc1Cl.Cl" ?
33.8

====

# system-name: 5-hydroxytryptamine receptor 2B (Homo sapiens)
# Sequence (P41595 whole entry): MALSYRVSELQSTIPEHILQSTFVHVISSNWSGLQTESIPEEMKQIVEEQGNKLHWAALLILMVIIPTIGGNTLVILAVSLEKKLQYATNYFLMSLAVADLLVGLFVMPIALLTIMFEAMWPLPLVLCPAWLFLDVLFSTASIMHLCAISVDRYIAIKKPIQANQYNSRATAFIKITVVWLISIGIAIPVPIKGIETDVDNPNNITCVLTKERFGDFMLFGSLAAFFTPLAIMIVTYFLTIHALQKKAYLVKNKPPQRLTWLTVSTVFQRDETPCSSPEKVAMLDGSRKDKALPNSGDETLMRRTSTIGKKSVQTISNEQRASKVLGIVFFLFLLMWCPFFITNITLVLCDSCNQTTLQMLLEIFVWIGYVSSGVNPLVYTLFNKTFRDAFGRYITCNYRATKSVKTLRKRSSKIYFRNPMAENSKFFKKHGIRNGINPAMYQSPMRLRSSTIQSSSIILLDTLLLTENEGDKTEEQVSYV
# method: Antagonist activity at 5HT2B (unknown origin) expressed in FRT cells co-expressing ANO1 and YFP assessed as inhibition of 5HT-induced increase in iodide influx preincubated with compound for 10 mins followed by 5-HT addition and measured after 8 sec by YFP fluorescence quenching analysis
# Type: cell-based
One threshold, 7 nM, splits the recorded IC50 values: lower ones are 1, equal or higher ones are 0.

Field: below-cutoff. Rule: recorded IC50 strictly less than 7 nM. Subject: "COc1ccc(S(=O)(=O)N[C@H]2CCOC2)cc1C(=O)Nc1ccccc1Cl"
1

Item: "COc1ccc(S(=O)(=O)N[C@H]2CCN(C(=O)[C@@H](N)CC(=O)O)C2)cc1C(=O)Nc1ccccc1Cl"
0

Item: "COc1ccc(S(=O)(=O)N[C@H]2CCN(C(=O)[C@@H](N)CCC(=O)O)C2)cc1C(=O)Nc1ccccc1Cl"
0

Item: "COc1ccc(S(=O)(=O)N[C@H]2CCN(C(=O)CC[C@H](N)C(=O)O)C2)cc1C(=O)Nc1ccccc1Cl.Cl"
1

Item: "COc1ccc(S(=O)(=O)N[C@H]2CCN(C(=O)C[C@H](N)C(=O)O)C2)cc1C(=O)Nc1ccccc1Cl"
0

====

# method: Drug concentration in male mouse plasma at 5 mg/kg, ip measured after 0.5 hrs by LC-MS/MS analysis
# Assay type: ADME, organism-based
metric-name: concentration at 0.5 h (ng/mL)
// return numeric value only (unit: ng/mL, not printed)

Quick one: concentration at 0.5 h of "COc1ccc(S(=O)(=O)N[C@H]2CCN(C(=O)CC[C@H](N)C(=O)O)C2)cc1C(=O)Nc1ccccc1Cl.Cl" ?
440

====

# method: Cytotoxicity against mouse NIH3T3 cells assessed as reduction in cell viability incubated for 24 hrs by EZ-CYTOX cell viability assay
# Type: toxicity, cell-based
metric-name: IC50 at 24 h

Quick one: IC50 at 24 h of "COc1ccc(S(=O)(=O)N[C@H]2CCN(C(=O)CC[C@H](N)C(=O)O)C2)cc1C(=O)Nc1ccccc1Cl.Cl" ?
> 100 µM

====

# method: Cytotoxicity against mouse L929 cells assessed as reduction in cell viability incubated for 24 hrs by EZ-CYTOX cell viability assay
# Type: toxicity, cell-based
metric-name: IC50 at 24 h

Quick one: IC50 at 24 h of "COc1ccc(S(=O)(=O)N[C@H]2CCN(C(=O)CC[C@H](N)C(=O)O)C2)cc1C(=O)Nc1ccccc1Cl.Cl" ?
> 100 µM

====

Assign inhibition to each entry below.
# system-name: 5-hydroxytryptamine receptor 2B (Homo sapiens)
# method: Antagonist activity at 5HT2B (unknown origin) expressed in FRT cells co-expressing ANO1 and YFP assessed as inhibition of 5HT-induced increase in iodide influx at 1 uM preincubated with compound for 10 mins followed by 5-HT addition and measured after 8 sec by YFP fluorescence quenching analysis relative to control
# Assay type: cell-based
# applied-conditions: time 608.0 sec
// return numeric value only (unit: %, not printed)

Quick one: inhibition of "COc1ccc(S(=O)(=O)N[C@H]2CCOC2)cc1C(=O)Nc1ccccc1N1CCN(C(=O)OC(C)(C)C)CC1" ?
1.64

Item: "COc1ccc(S(=O)(=O)N[C@H]2CCOC2)cc1C(=O)Nc1ccccc1NC(=O)OC(C)(C)C"
20.1

Item: "COc1ccc(S(=O)(=O)N[C@H]2CCOC2)cc1C(=O)Nc1ccccc1N1CCNCC1"
15

Item: "COc1ccc(S(=O)(=O)N[C@H]2CCOC2)cc1C(=O)Nc1ccccc1N"
32.8
